System: tobacco bacterial rot (Pectobacterium carotovorum)
protocolDetails: Suppression of tobacco bacterial rot
Format: in vivo, Pectobacterium carotovorum SCC1
testConditions: Table 6, tobacco, 10 ppm
Square brackets hold non-standard residues; d marks the D form. Peptide text beside a SMILES is read from it. * marks the point of attachment. Boc = CC(C)(C)OC(=O)*
# note: exactly 50% is not below, so it is -1; use 1 for Lesion outbreak rate strictly under it

INPUT: In the record for COC(=O)[C@@H]1CCCN1C(=O)[C@H](Cc1ccccc1)NC(=O)OC(C)(C)C [Compound 19] (Boc-Phe-Pro-OMe) , is Lesion outbreak rate less than 50%?
OUTPUT: 1

INPUT: In the record for COC(=O)[C@H](C)NC(=O)CNC(=O)OC(C)(C)C [Compound 14] (Boc-Gly-Ala-OMe) , is Lesion outbreak rate less than 50%?
OUTPUT: -1

INPUT: In the record for CSC(=O)c1cccc2nnsc12 [BTH, reference compound] , is Lesion outbreak rate less than 50%?
OUTPUT: -1

INPUT: In the record for COC(=O)CNC(=O)CNC(=O)OC(C)(C)C [Compound 18] (Boc-Gly-Gly-OMe) , is Lesion outbreak rate less than 50%?
OUTPUT: -1

INPUT: In the record for COC(=O)[C@@H]1CCCN1C(=O)[C@@H](NC(=O)OC(C)(C)C)C(C)C [Compound 21] (Boc-Val-Pro-OMe) , is Lesion outbreak rate less than 50%?
OUTPUT: 1

INPUT: In the record for COC(=O)[C@H]1CCCN1C(=O)[C@@H](CCSC)NC(=O)OC(C)(C)C [Compound 68] (Boc-[dM]-[dP]-OMe) , is Lesion outbreak rate less than 50%?
OUTPUT: -1

INPUT: In the record for COC(=O)[C@H]1CCCN1C(=O)[C@H](NC(=O)OC(C)(C)C)C(C)C [Compound 76] (Boc-[dV]-[dP]-OMe) , is Lesion outbreak rate less than 50%?
OUTPUT: 1

INPUT: In the record for COC(=O)[C@H]1CCCN1C(=O)[C@@H](C)NC(=O)OC(C)(C)C [Compound 70] (Boc-[dA]-[dP]-OMe) , is Lesion outbreak rate less than 50%?
OUTPUT: -1

* * *

Tested on: tobacco bacterial rot (Pectobacterium carotovorum)
protocolDetails: Suppression of tobacco bacterial rot
Format: in vivo, Pectobacterium carotovorum SCC1
testConditions: Table 6, tobacco, 1 ppm
Square brackets hold non-standard residues; d marks the D form. Peptide text beside a SMILES is read from it. * marks the point of attachment. Boc = CC(C)(C)OC(=O)*
measurementLabel: Lesion outbreak rate (%)
State just the number; it will be interpreted in %.

INPUT: Fill in reported Lesion outbreak rate for this entry: COC(=O)[C@@H]1CCCN1C(=O)[C@@H](NC(=O)OC(C)(C)C)C(C)C [Compound 21] (Boc-Val-Pro-OMe)
OUTPUT: 37

INPUT: Fill in reported Lesion outbreak rate for this entry: COC(=O)[C@H]1CCCN1C(=O)[C@@H](Cc1ccc(O)cc1)NC(=O)OC(C)(C)C [Compound 71] (Boc-[dY]-[dP]-OMe)
OUTPUT: 60

INPUT: Fill in reported Lesion outbreak rate for this entry: COC(=O)[C@H]1CCCN1C(=O)[C@@H](CC(C)C)NC(=O)OC(C)(C)C [Compound 75] (Boc-[dL]-[dP]-OMe)
OUTPUT: 25

INPUT: Fill in reported Lesion outbreak rate for this entry: COC(=O)[C@@H]1CCCN1C(=O)[C@H](C)NC(=O)OC(C)(C)C [Compound 20] (Boc-Ala-Pro-OMe)
OUTPUT: 56

INPUT: Fill in reported Lesion outbreak rate for this entry: COC(=O)[C@H](Cc1c[nH]c2ccccc12)NC(=O)CNC(=O)OC(C)(C)C [Compound 16] (Boc-Gly-Trp-OMe)
OUTPUT: 25

INPUT: Fill in reported Lesion outbreak rate for this entry: COC(=O)[C@H]1CCCN1C(=O)[C@@H](CO)NC(=O)OC(C)(C)C [Compound 64] (Boc-[dS]-[dP]-OMe)
OUTPUT: 100

INPUT: Fill in reported Lesion outbreak rate for this entry: COC(=O)[C@H]1CCCN1C(=O)[C@@H](CCSC)NC(=O)OC(C)(C)C [Compound 68] (Boc-[dM]-[dP]-OMe)
OUTPUT: 78

INPUT: Fill in reported Lesion outbreak rate for this entry: COC(=O)[C@H](C)NC(=O)[C@H](C)NC(=O)OC(C)(C)C [Compound 13] (Boc-Ala-Ala-OMe)
OUTPUT: 100
